Target: Cytochrome P450 2C9 (Homo sapiens)
Test: Cytochrome panel assay with activity outcomes; also: % is scaled to controls: 0 for no effect and ±100 for the full control effect
Settings: recombinant CYP, pro-luciferin dealkylation, luminescence, p450-cyp2c9; series mostly up to 57.1 µM
In all, about 16,000 compounds went through this assay and about 4,000 (25%) were called active. Roughly 26% stayed inconclusive and do not appear here. Only a sample is shown.

# COMPOUND_STRUCTURE_STRING, SYSTEM_NAME, activity, negative = inhibition
records = [
    ("CCN(CCO)C[C@H]1CCC[C@H]2CCCC[C@@H]21", "Cytochrome P450 2C9 (Homo sapiens)", "1.06% [at 11.4 µM] (inactive)"),
    ("COC(=O)C/C=C\\[C@@H](C)[C@@H](/C=N\\OC[C@@H](O)[C@H]1O[C@H]2OC(C)(C)O[C@H]2[C@@H]1O)NS(=O)(=O)c1ccc(C)cc1", "Cytochrome P450 2C9 (Homo sapiens)", "2.11% [at 11.4 µM] (inactive)"),
    ("CC(C)CN=C(N)N=C(N)N", "Cytochrome P450 2C9 (Homo sapiens)", "-6.17% [at 11.4 µM] (inactive)"),
    ("Cc1noc(C)c1-c1nc(N(C)C)c2ccccc2n1", "Cytochrome P450 2C9 (Homo sapiens)", "27.2% [at 2.29 µM] (inactive)"),
    ("COC(=O)C/C=C\\[C@@H](C)[C@@H](/C=N\\OC[C@@H](O)[C@H]1O[C@H]2OC(C)(C)O[C@H]2[C@@H]1O)OC", "Cytochrome P450 2C9 (Homo sapiens)", "8.96% [at 11.4 µM] (inactive)"),
    ("O=C(Nc1ccc(-c2cn3ccccc3n2)cc1)c1cc(Br)ccc1O", "Cytochrome P450 2C9 (Homo sapiens)", "-1.72% [at 11.4 µM] (inactive)"),
    ("COCCNc1cc(-c2c(C)noc2C)ncn1", "Cytochrome P450 2C9 (Homo sapiens)", "6.99% [at 2.29 µM] (inactive)"),
]
